Biological target: T1, monkey PD-L1 (Cat. #90251-C08H, Sino Biological) (monkey (cyno), UniProt G7PSE7 19-239)
T1 construct: Bought recombinant protein used in the Biacore test; also called Monkey (cyno) PD-L1; Cyno PDL1
T1 sequence (G7PSE7 entry or part of it C08H C08H): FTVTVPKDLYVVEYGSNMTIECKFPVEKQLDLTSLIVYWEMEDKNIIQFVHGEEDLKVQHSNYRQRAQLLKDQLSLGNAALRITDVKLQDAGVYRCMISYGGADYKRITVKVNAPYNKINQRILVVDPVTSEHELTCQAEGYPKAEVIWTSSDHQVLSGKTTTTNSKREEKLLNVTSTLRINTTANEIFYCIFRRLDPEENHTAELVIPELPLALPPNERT
Assay: SPR, Biacore X100, 1:1 Langmuir
// reported kon for each item listed
Kindly answer with a numeric value in M⁻¹ s⁻¹, unit omitted.

Worked examples follow.
H18L61 (antibody, human IgG1, kappa, V domains shown, also called 24D5 H18 and 24D5 L61) VH: QVQLVQSGAEVKKPGASVKVSCKASGYTFTSYWMHWVRQAPGQGLEWMGRISPSSGMAVYNEKFKNRVTMTRDTSTSTVYMELSSLRSEDTAVYYCARGGSSYDYFDYWGQGTTVTVSS VL: DIVLTQSPASLAVSPGQRATITCRASESVSIHGTHLMHWYQQKPGQPPKLLIYAASNLESGVPARFSGSGSGTDFTLTINPVEAEDTANYYCQQSFEDPLTFGQGTKLEIKR: 1.6e+06
H5L11 (antibody, human IgG1, kappa, V domains shown, from the HRP00049 mutant library; also called 9-2 H5 and 9-2 L11) VH: QVQLQESGPGLVKPSQTLSLTCTVSGGSISDGSAYWSWIRQHPGKGLEYIGFISRAGSTYNTPSLKGRVTISRDTSKNQFSLKLSSVTAADTAVYYCARSGGWLAPFDYWGRGTLVTVSS VL: DIVMTQSPDSLAVSLGERATINCKSSQSLFYHSNQKHSLAWYQQKPGQPPKLLIYGASTRESGVPDRFSGSGSGTDFTLTISSLQAEDVAVYYCQQYYGYPYTFGGGTKVEIKR: 572000

Item H12L64 (antibody, human IgG1, kappa, V domains shown, from the HRP00052 mutant library; also called 24D5 H12 and 24D5 L64) VH: QVQLVQSGAEVKKPGASVKVSCKASGYTFTSYWMHWVRQAPGQGLEWMGRITPSSGFAMYNEKFKNRVTMTRDTSTSTVYMELSSLRSEDTAVYYCARGGSSYDYFDYWGQGTTVTVSS VL: DIVLTQSPASLAVSPGQRATITCRASESVSIHGTHLMHWYQQKPGQPPKLLIYVASYAASGVPARFSGSGSGTDFTLTINPVEAEDTANYYCQQSFEDPLTFGQGTKLEIKR has what recorded kon?
1.83e+06

Item H6L11 (antibody, human IgG1, kappa, V domains shown, also called 9-2 H6 and 9-2 L11) VH: QVQLQESGPGLVKPSQTLSLTCTVSGGSISNDYWTWIRQHPGKGLEYIGFISRAGSTYNTPSLKGRVTISRDTSKNQFSLKLSSVTAADTAVYYCARSGGWLAPFDYWGRGTLVTVSS VL: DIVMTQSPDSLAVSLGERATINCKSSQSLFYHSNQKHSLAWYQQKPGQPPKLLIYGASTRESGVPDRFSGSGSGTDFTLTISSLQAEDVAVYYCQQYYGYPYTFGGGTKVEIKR has what recorded kon?
474000
